Test system: MS2 coat protein
measurementNotes: apparent KD of MS2 coat protein; designed switch direction (-1 OFF switch, 1 ON switch): 1; higher = weaker reporter binding
condition: Eterna round: R95; input ligand: none
Exercise: state measured apparent KD of MS2 coat protein for each of the sequences provided.
Express the reported value numerically, then name its unit.

Enquiry: Which apparent KD of MS2 coat protein reading was recorded for the sequence GGCAGGUGCAGGCUUGCUUGCACCUGGAGACAUGAGGAUCACCCAUGUUUGGGACAAGCUUUGCUCUUCGUCUUUUC [JL ViennaUCT Isusreraar mod 6] (puzzle: Sensor for hsa-mir-208a) ?
Return: 0.107 µM

Enquiry: Do the same for GAGAGAGGAAGCGAGGAUAUCGUGUUGGGUACAUGAGGAUCACCCAUGUUGUAGGUAGAGGUAGGCGAGAAGGCGCAGGAGAGGU [JR_SS2_Sub096] (puzzle: Same State 2) please
Return: 0.195 µM

Enquiry: Continue with GUAUCUACAGGUUGCGAUGCUCGUCUGAUACAUGAGGAUCACCCAUGUUAUAGCCCUGUGCUUGCGCAGGGCUGAUU [Sensor for hsa-mir-208a ( MOD of Tearor v.2 )] (puzzle: Sensor for hsa-mir-208a)
Return: 0.116 µM

Enquiry: UCUUGGUUUUUGCUCGUUUUUUGUGUUGAACAUGAGGAUCACCCAUGUAUUGUACGGUCCAGUUUAGUAGUGGUCCG [JMF 32] (puzzle: Sensor for hsa-mir-208a) , same question.
Return: 0.027 µM

Enquiry: Same for GACAUUCUAUCUCAGGAUAUCAUGUCAAAGACAUGAGGAUCACCCAUGUACCAGGAAACUGGUUAUGAGAAGGGAGAUAGAAUGA [Mat - Same State 2 - Mod - D46] (puzzle: Same State 2)
Return: 0.176 µM

Enquiry: GGUCCAGCCUGAGCUGGACAAAAGCAUGUACAUGAGGAUCACCCAUGUUCAUGUACAAGCUUUUUGCUCGUCUUAAU [salish99_208a_r3_036] (puzzle: Sensor for hsa-mir-208a) , same question.
Return: 0.492 µM

Enquiry: Try the sequence GUAAUACAUGAGGAUCACCCAUGUCAAUGUAGUCGAGGAUAUGGGUAGCUAUGAGGCGUACUAGAAGGCGAGGAGU [JL-ss1-3.18 ViennaUCT mod] (puzzle: Same State 1)
Return: 0.0858 µM

Enquiry: Also CUCAAAACAAGUUGCAGUGUUCGUCUUUAACAUGAGGAUCACCCAUGUAAUAGCCUGGUGGAAGCGCUCGGGCCACC [Qurabila] (puzzle: Sensor for hsa-mir-208a) , if possible.
Return: 0.0251 µM

Enquiry: Another sequence: GGUGAGAGAGUCUAGGAUAUGAAAGGAGAGACAUGAGGAUCACCCAUGUAAGAGAGAGAGGAGAGUUAGAAGGAGAAGAGAGUGG [Altered State 2-23 - Jieux - Same State 2] (puzzle: Same State 2)
Return: 0.047 µM

Enquiry: // same read-out, input: GGUCCAGCCUGAGCUGGACAAAAGCAUGUACAUGAGGAUCACCCAUGUCAUGUACAAGCUUUUUGCUCGUCUUAAAU [Mat - hsa-mir-208a - 84] (puzzle: Sensor for hsa-mir-208a)
Return: 0.8 µM

Enquiry: Field entry: AACCAACAAAUAAAACAAGCGUGCUCGUCACAUGAGGAUCACCCAUGUUUAAGCGCUGUUCCUACAUCCGCAGCGCC [Inbitiar] (puzzle: Sensor for hsa-mir-208a)
Return: 0.232 µM

Enquiry: Ok, now AUUAAACAUGAGGAUCACCCAUGUCAACAAAGUCGAGGAUAUGGGCAAAUUAAAUAAGAACCAGAAGGCGAAUAAU [salish99_ss1_r3_060] (puzzle: Same State 1)
Return: 0.269 µM

Enquiry: Would you mind doing AAUAAGUUCAGCUCGUCUUGCGCCGACUGACAUGAGGAUCACCCAUGUGGAUUCCAAGAGAUCCAUUGGCGUGUUUC [Erisdian] (puzzle: Sensor for hsa-mir-208a) as well?
Return: 0.079 µM

Enquiry: Queued: GGUCCAGCCUGAGCUGGACAAAAGCAUGUACAUGAGGAUCACCCAUGUCAUGUACAAGCUUUUUGCUCGUCUUAAGU [Mat - hsa-mir-208a - 86] (puzzle: Sensor for hsa-mir-208a)
Return: 0.927 µM

Enquiry: Quick one: AGUCCAGCAAGAGCUGGACAAAAGCAUGUACAUGAGGAUCACCCAUGUUCAUGUACAAGCUUUUUGCAAGUCAAAAG [Mat - hsa-mir-208a - Mod of JL - 73] (puzzle: Sensor for hsa-mir-208a)
Return: 0.416 µM

Enquiry: Try this sequence next: GGUCCGGCCUGAGCUGGACCGAAGCAUGUACAUGAGGAUCACCCAUGUCAUGUACAGGCUUUUUGCUCGUCUUGUUG [JL-shm-2.14 JL Mod] (puzzle: Sensor for hsa-mir-208a)
Return: 0.746 µM

Enquiry: Next record, please: GUUAAACAUGAGGAUCACCCAUGUAAUAUAAUGGGAGGAUAUCUGAAUUAAUUAAAUUAAGGAGAAGGCCUAAUGG [Mat - Same State 1 - Mod of Eli - D51] (puzzle: Same State 1)
Return: 0.608 µM

Enquiry: Try this sequence next: UUAUAACAUGAGGAUCACCCAUGUCAACAAAGUCGAGGAUAUGGGCAUAGAGGAUAAGAACCAGAAGGCGAAUAUU [Mat - Same State 1 - Mod of UCT - D39] (puzzle: Same State 1)
Return: 0.163 µM

Enquiry: // next record AGUCCAGCCUGAGCUGGACAAAAGCAUGUACAUGAGGAUCACCCAUGUUCAUGUACAAGCUUUUUGCUCGUCUUGCU [salish99_208a_r3_105x] (puzzle: Sensor for hsa-mir-208a)
Return: 0.68 µM
